- System: Myzus persicae (green peach aphid)
- Protocol: Myzus persicae (green peach aphid) pea seedling root uptake test
- Format: in vivo
- Cond: 24 ppm test solution, roots of infested pea seedlings, 6 days after introduction
Assign control (mortality) to each entry below.
Answers are plain numbers, in %.

# count of solved cases: 5
-- ask Look up control (mortality) of Cc1c(OC(C2=NCCN2)C(C)C)cccc1[N+](=O)[O-] (stereo not drawn) [Compound 1.002] and report it.
-- reply 80

-- ask Look up control (mortality) of Cc1c(OC(C2=NCCN2)C2CC2)cccc1[N+](=O)[O-] (stereo not drawn) [Compound 1.003] and report it.
-- reply 50

-- ask Look up control (mortality) of CCC(Oc1cccc([N+](=O)[O-])c1C)C1=NCCN1 (stereo not drawn) [Compound 1.001] and report it.
-- reply 80

-- ask Look up control (mortality) of C=CCC(Oc1cccc([N+](=O)[O-])c1C)C1=NCCN1 (stereo not drawn) [Compound 1.013] and report it.
-- reply 80

-- ask Look up control (mortality) of CCCC(Oc1cccc([N+](=O)[O-])c1C)C1=NCCN1 (stereo not drawn) [Compound 1.004] and report it.
-- reply 100

// moving on: another record for control (mortality)
-- ask Look up control (mortality) of CCCC(Oc1cccc([N+](=O)[O-])c1Cl)C1=NCCN1 (stereo not drawn) [Compound 1.009] and report it.
-- reply 80

----------
- Test system: Heliothis virescens (tobacco budworm)
- Protocol: Heliothis virescens (tobacco budworm) egg/larva test on artificial diet
- Format: in vivo
- Cond: 200 ppm by pipetting, eggs 0-24 h old on artificial diet, 4 days incubation
Endpoint: control (egg mortality, larval mortality, growth regulation) (%)
Answers are plain numbers, in %.

-- ask Look up control (egg mortality, larval mortality, growth regulation) of Cc1c(OC(C2=NCCN2)C2CC2)cccc1[N+](=O)[O-] (stereo not shown) [Compound 1.003] and report it.
-- reply 100

-- ask Look up control (egg mortality, larval mortality, growth regulation) of CCCC(Oc1cccc([N+](=O)[O-])c1C)C1=NCCN1 (stereo not shown) [Compound 1.004] and report it.
-- reply 80

-- ask Look up control (egg mortality, larval mortality, growth regulation) of CCCCC(Oc1cccc([N+](=O)[O-])c1C)C1=NCCN1 (stereo not shown) [Compound 1.005] and report it.
-- reply 80

Field: control (egg mortality, larval mortality, growth regulation). Fill in for each record below.
1. CCC(Oc1cccc([N+](=O)[O-])c1C)C1=NCCN1 (stereo not shown) [Compound 1.001]
2. CCCC(Oc1cccc([N+](=O)[O-])c1Cl)C1=NCCN1 (stereo not shown) [Compound 1.009]
3. C=CCC(Oc1cccc([N+](=O)[O-])c1C)C1=NCCN1 (stereo not shown) [Compound 1.013]
4. COCC(Oc1cccc([N+](=O)[O-])c1Cl)C1=NCCN1 (stereo not shown) [Compound 1.017]

-- reply
1: 80; 2: 100; 3: 50; 4: 50

src = patent US20100267795A1
